Biological target: human C1 r (Homo sapiens, UniProt P00736)
Construct: purchased Enzyme Research Labs (South Bend, Ind.)
Sequence (P00736 464-705 limits assumed): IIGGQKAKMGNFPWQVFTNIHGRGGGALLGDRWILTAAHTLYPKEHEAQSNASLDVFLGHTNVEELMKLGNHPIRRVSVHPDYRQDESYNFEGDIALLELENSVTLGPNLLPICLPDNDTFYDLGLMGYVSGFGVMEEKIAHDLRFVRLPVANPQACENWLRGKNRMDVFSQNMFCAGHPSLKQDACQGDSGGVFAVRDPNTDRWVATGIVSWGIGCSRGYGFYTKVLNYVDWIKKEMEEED
Sequence (P00736 18-463 partner limits assumed): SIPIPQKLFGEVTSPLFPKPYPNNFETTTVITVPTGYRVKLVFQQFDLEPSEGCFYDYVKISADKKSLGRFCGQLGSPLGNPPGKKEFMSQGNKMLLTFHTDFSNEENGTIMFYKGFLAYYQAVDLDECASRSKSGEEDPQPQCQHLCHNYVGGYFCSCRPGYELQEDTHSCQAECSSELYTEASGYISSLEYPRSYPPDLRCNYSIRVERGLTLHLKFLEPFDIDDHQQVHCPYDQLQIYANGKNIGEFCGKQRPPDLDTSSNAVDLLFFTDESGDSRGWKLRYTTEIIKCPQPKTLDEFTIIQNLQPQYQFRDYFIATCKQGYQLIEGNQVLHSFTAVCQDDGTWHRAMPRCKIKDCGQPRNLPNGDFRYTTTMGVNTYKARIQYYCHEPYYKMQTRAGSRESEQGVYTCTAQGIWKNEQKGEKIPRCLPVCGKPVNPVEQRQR
Assay: Assay of C1r Enzyme Activity (Assay 1), thioester substrate z-Gly-Arg-S-Bzl with DTNB
Type: biochemical
Conditions: Table 1 and text, pH 7.4-7.5, read-out: Inhibition of Clr Assay 1 (IC50)
Recorded IC50, one value per entry.

{"columns": ["structure-as-smiles", "IC50"],
 "data": [
  ["CSc1ccccc1Nc1nc2ccccc2c(=O)o1", "> 66 µM"],
  ["Cc1ccc2nc(Nc3ccccc3I)oc(=O)c2c1", "> 66 µM"],
  ["CN(C)c1ccc2c(=O)oc(Nc3ccccc3I)nc2c1", "> 66 µM"]
]}

* * *

Recorded IC50, one value per entry.
Target: human C1 r (Homo sapiens)
Construct: purchased Enzyme Research Labs (South Bend, Ind.)
Test: Assay of C1r Enzyme Activity (Assay 1), thioester substrate z-Gly-Arg-S-Bzl with DTNB
Assay type: biochemical
Settings: Table 1 and text, pH 7.4-7.5, read-out: Inhibition of Clr Assay 1 (IC50)

{"columns": ["compound", "IC50"],
 "data": [
  ["COc1ccccc1C(=O)N(C)c1nc2ccccc2c(=O)o1 [Example 35]", "> 66 µM"],
  ["Cc1cccc2nc(Nc3ccccc3I)oc(=O)c12 [Example 26]", "> 66 µM"],
  ["Cc1ccccc1C(=O)N(C)c1nc2ccccc2c(=O)o1 [Example 36]", "> 67 µM"],
  ["COc1ccc2c(=O)oc(Nc3ccccc3I)nc2c1 [Example 25]", "> 66 µM"],
  ["CCN(c1nc2ccccc2c(=O)o1)c1ccccc1I [Example 11]", "> 66 µM"]
]}
